- test target: T1, human recombinant CD117 (c-Kit) from Sino Biological (Catalog No. 11996-H08H) (human, UniProt P10721 26-524)
- T1 construct: also called soluble antigen
- T1 sequence (P10721 26-524 limits assumed): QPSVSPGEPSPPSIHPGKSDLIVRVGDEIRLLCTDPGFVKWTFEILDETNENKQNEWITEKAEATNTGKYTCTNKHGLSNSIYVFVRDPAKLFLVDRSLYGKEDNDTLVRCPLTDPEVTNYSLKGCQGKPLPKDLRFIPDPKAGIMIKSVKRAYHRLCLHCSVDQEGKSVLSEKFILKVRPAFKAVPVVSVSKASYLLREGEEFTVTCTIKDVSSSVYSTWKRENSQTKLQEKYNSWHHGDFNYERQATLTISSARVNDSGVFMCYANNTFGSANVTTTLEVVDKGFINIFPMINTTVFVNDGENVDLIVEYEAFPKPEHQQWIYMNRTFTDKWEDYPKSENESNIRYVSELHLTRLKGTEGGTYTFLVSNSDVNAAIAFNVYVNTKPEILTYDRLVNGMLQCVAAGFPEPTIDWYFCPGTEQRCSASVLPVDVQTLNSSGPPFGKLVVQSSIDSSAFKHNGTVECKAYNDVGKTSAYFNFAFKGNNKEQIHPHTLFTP
- test method notes: BLI Octet, IgG on anti-human Fc sensor, soluble CD117, 1:1 fit
attribute measured: pKd
Note: pKd values are expressed as the negative base-10 logarithm of concentration in M.

GET /value?item= Zumstein (antibody, V domains shown, IgG; also called VH1/VL2; HC1 LC2) VH: QVQLVQSGAEVKKPGASVKVSCKASGYTFTSYNMHWVRQAPGQGLEWMGVIYSGNGDTSYNQKFKGRVTMTTDTSTSTAYMELRSLTSDDTAVYYCARERDTRFGNWGQGTLVTVSA VL: DIVMTQSPSTLSASVGDRVTITCRASESVDIYGNSFMHWYQQKPGKAPKLLIYLASNLESGVPSRFSGSGSGTEFTLTISSLQPDDFATYYCQQNNEDPYTFGQGTKLEIK &field=pKd returns 8.94

GET /value?item= HC5 LC3 (antibody, V domains shown, IgG; also called VH5/VL3) VH: EVQLVQSGAEVKKPGESLKISCKGSGYTFTSYNMHWVRQMPGKGLEWMGVIYSGNADTSYNQKFKGQVTISADKSISTAYLQWSSLKASDTAMYYCARERDTRFGNWGQGTLVTVSA VL: DIVMTQSPSTLSASVGDRVTITCRASESVDIYGSSFMHWYQQKPGQPPKLLIYLASNLESGVPSRFSGSGSGTEFTLTISSLEADDVATYYCQQNNEDPYTFGGGTKLEIK &field=pKd returns 8.44
